Test system: Fibroblast
Experiment: Multiplex assay against human fibroblast
Assay type: toxicity, cell-based
Conditions: 48 h, 10 µM, compound concentration 10 uM, replicate 2
TEST READOUT: Population Fragmented Nuclei (%)
Kindly answer with a numeric value in %, unit omitted.

N#CCNC(=O)c1ccc(-c2ccnc(Nc3ccc(N4CCOCC4)cc3)n2)cc1
52
Oc1cccc(-c2nc(N3CCOCC3)c3oc4ncccc4c3n2)c1
36
CN1CCN(Cc2ccc(-c3cnc4[nH]cc(-c5ccc6[nH]ccc6c5)c4c3)cc2)CC1
79
CN1C(=O)[C@@H](NC(=O)c2cc3ccccc3[nH]2)N=C(c2ccccc2)c2ccccc21 [DEVAZEPIDE]
37
CCCCCNC(=N)N/N=C/c1c[nH]c2ccc(OC)cc12.O=C(O)/C=C\C(=O)O [TEGASEROD MALEATE]
52

Problem: Need Population Fragmented Nuclei (%), item CCCc1cc(C)[nH]c(=O)c1CNC(=O)c1cc(-c2ccc(N3CCN(C(C)C)CC3)nc2)cc2c1cnn2C(C)C
Solution: 22

Problem: Need Population Fragmented Nuclei (%), item CC(C)[C@H](CO)Nc1nc(Nc2cccc(Cl)c2)c2ncn(C(C)C)c2n1
Solution: 37

Problem: Need Population Fragmented Nuclei (%), item CC(C)c1cc(Nc2nc(N3CCC[C@H](N)C3)ncc2C(N)=O)cc(C(C)C)n1
Solution: 27

Problem: Need Population Fragmented Nuclei (%), item c1ccc(-c2oc3ncnc(NC[C@@H]4CCCO4)c3c2-c2ccccc2)cc1
Solution: 40

Reference for the values: ChEMBL document CHEMBL4689842
